Test: solvent given as SMILES
Conditions: in CCO
Parameter Measured: emission maximum (nm)

Any idea what emission maximum was measured for `N#Cc1cnc(-c2c3ccccc3c(-c3ncc(C#N)cn3)c3ccccc23)nc1` ?
503

Any idea what emission maximum was measured for `Cc1c(C)n2c(COC(=O)c3ccccc3O)c(C)c(=O)n2c1=O` ?
465

Any idea what emission maximum was measured for `COc1cccc(-n2c(-c3ccc(F)cc3)nc(C)c2C)c1` ?
371

Any idea what emission maximum was measured for `CNc1cc2nc3cc(Cl)c(Cl)cc3nc2cc1NC` ?
541

Any idea what emission maximum was measured for `CCN1C(=CC=Cc2n(CC)c3cc(Cl)c(Cl)cc3[n+]2CC)N(CC)c2cc(Cl)c(Cl)cc21` ?
530

Any idea what emission maximum was measured for `Nc1ccc2c(c1)C(=O)c1ccc(N)cc1C2=O` ?
616

Any idea what emission maximum was measured for `Nc1ccccc1C(=O)O` ?
407

Any idea what emission maximum was measured for `COc1ccc2cc(-c3ccc(C)cc3)c(=O)oc2c1` ?
429

Any idea what emission maximum was measured for `COCc1ncc(-c2c3ccccc3c(-c3cnc(COC)nc3)c3ccccc23)cn1` ?
420

Any idea what emission maximum was measured for `O=Cc1cnc(-c2c3ccccc3cc3ccccc23)nc1` ?
438

Any idea what emission maximum was measured for OCC1O[C@@H](Cc2cc(O)cc(/C=C/c3ccc(O)c(O)c3)c2)[C@H](O)[C@@H](O)[C@@H]1O (some centres not stated) ?
390

Any idea what emission maximum was measured for `CCNc1ccc2c(C(F)(F)F)cc(=O)oc2c1` ?
500

---

Test: solvent given as SMILES
Conditions: in ClC(Cl)(Cl)Cl
Parameter Measured: emission maximum (nm)
Give your result in nm as a bare value.

// known answers, use as guide
Any idea what emission maximum was measured for `COc1ccc(N(c2ccc(OC)cc2)c2ccc(-c3ccc4c(c3)C(=O)c3ccccc3C4=O)cc2)cc1` ?
646

Any idea what emission maximum was measured for `COc1ccc2c3c(cccc13)C(=O)N(C)C2=O` ?
412

Any idea what emission maximum was measured for `CCCCCCCCOc1ccc2c3cccc4c(OCCCCCCCC)ccc(c5cccc1c52)c43` ?
471.01

Any idea what emission maximum was measured for `c1csc(-c2cnc(-c3cccs3)c3nonc23)c1` ?
580

API: the following record is the query input.
Any idea what emission maximum was measured for `O=C1c2ccc3c4ccc5c6c(ccc(c7ccc(c2c37)C(=O)N1c1ccncc1)c64)C(=O)N(c1ccncc1)C5=O` ?
573

---

Assay: solvent given as SMILES
Settings: in CO
Parameter Measured: emission maximum (nm)

// known answers, use as guide
Any idea what emission maximum was measured for `CCOC(=O)CCCCCn1c2ccccc2c(=O)c2cc3c(cc21)c(=O)c1cc(I)ccc1n3CCCCCC(=O)OCC` ?
558

Any idea what emission maximum was measured for `COc1ccc(-c2nc(-c3ccccc3OC)[nH]c2-c2ccc(OC)cc2)cc1` ?
392

Any idea what emission maximum was measured for `COc1cc(N(c2ccccc2)c2ccccc2)ccc1C=C(C#N)C#N` ?
562

Any idea what emission maximum was measured for `Cc1ccc2c(CC(=O)NN)coc2c1` ?
391

1 = COc1ccc(-c2cc3c4c(c2)CCc2cc(-c5ccc(OC)cc5)cc(c2-4)CC3)cc1
2 = C(/C=C/C1=[NH+]c2cccc3cccc1c23)=c1/[nH]c2cccc3cccc1c32
Would you mind telling me which has the lower recorded emission maximum between 1 and 2 ? // output: label of the selected item
1

---

Assay: solvent given as SMILES
Conditions: in C1CCOC1
Parameter Measured: emission maximum (nm)

Any idea what emission maximum was measured for `CN(C)c1ccc(C(=O)Nc2ccc(Cl)cc2)cc1` ?
490

Any idea what emission maximum was measured for `Cc1ccc(-c2ccc(-c3ccc(-c4ccc(-c5ccc(C)cc5)cc4)c(/C(=C(/c4ccccc4)c4cc(-c5ccc(-c6ccc(C)cc6)cc5)ccc4-c4ccc(-c5ccc(C)cc5)cc4)c4ccccc4)c3)cc2)cc1` ?
498

Any idea what emission maximum was measured for `CC1(C)c2ccccc2N(c2cccc(S(=O)(=O)c3cccc(N4c5ccccc5C(C)(C)c5ccccc54)c3)c2)c2ccccc21` ?
422

Any idea what emission maximum was measured for `COc1ccc(C(=Cc2ccc(/C=C/c3ccc(C#N)cc3)cc2)c2ccc(OC)cc2)cc1` ?
467

Any idea what emission maximum was measured for `CCCCCCCCCCn1c(-c2cc(-c3nc4ccccc4n3CCCCCCCCCC)cc(-c3nc4ccccc4n3CCCCCCCCCC)c2)nc2ccccc21` ?
360.5

Any idea what emission maximum was measured for `O=CC1=C(c2ccc(-c3cccs3)s2)CCC1` ?
479

Any idea what emission maximum was measured for `O=C1c2cccc3cc4ccccc4c(c23)C(=O)N1Cc1ccccn1` ?
485

Any idea what emission maximum was measured for `CN(C)c1ccc(/C=C/c2nc3c4ccccc4c4ccccc4c3[nH]2)cc1` ?
463

---

Test: solvent given as SMILES
Conditions: in O
Parameter Measured: emission maximum (nm)

Any idea what emission maximum was measured for `CCn1c2ccc(S(=O)(=O)O)cc2c(=O)c2cc3c(cc21)c(=O)c1cc(S(=O)(=O)O)ccc1n3CCCCCC(=O)O` ?
559

Any idea what emission maximum was measured for `COc1ccccc1-c1nc(-c2ccccc2)c2ccccn12` ?
481

Any idea what emission maximum was measured for `CC[n+]1c(-c2ccccc2)c2cc(-n3cccc3)ccc2c2ccc(N)cc21` ?
603

Any idea what emission maximum was measured for `CN1C(=O)/C(=C/c2ccncc2)N=C1c1ccccc1` ?
477

Any idea what emission maximum was measured for `CC(=O)Nc1ccc(S(=O)(=O)O)c(/N=N/c2c(O)c3ccccc3n(C)c2=O)c1` ?
549

---

Assay: solvent given as SMILES
Details: in O
Parameter Measured: emission maximum (nm)

Any idea what emission maximum was measured for `[C-]#[N+]c1ccc(-c2ccc(N(C)C)cc2)cc1` ?
417

Any idea what emission maximum was measured for `O=C([O-])c1c(Cl)c(Cl)c(Cl)c(Cl)c1-c1c2cc(I)c(=O)c(I)c-2oc2c(I)c([O-])c(I)cc12` ?
566

Any idea what emission maximum was measured for `COC(=O)c1ccccc1-c1c2ccc(=[NH2+])cc-2oc2cc(N)ccc12` ?
527

Any idea what emission maximum was measured for `Cc1ccc(N(CC(=O)[O-])CC(=O)[O-])c(OCCOc2cc3cc(-c4ncc(C(=O)[O-])o4)oc3cc2N(CC(=O)[O-])CC(=O)[O-])c1` ?
500

---

# emission maximum listing for each entry below
Assay: solvent given as SMILES
Details: in Cc1ccccc1
Give your result in nm as a bare value.

// known answers, use as guide
Any idea what emission maximum was measured for `CC1(C)c2ccccc2N(c2ccc3c(c2)c2cc(N4c5ccccc5C(C)(C)c5ccccc54)ccc2c2nc(C#N)c(C#N)nc32)c2ccccc21` ?
678

Any idea what emission maximum was measured for `F[B-]1(F)Oc2ccccc2-c2cc(-n3c4ccc(-c5ccccc5)cc4c4cc(-c5ccccc5)ccc43)cc[n+]21` ?
471

Any idea what emission maximum was measured for `CC(C)(C)c1ccc2c(c1)c1cc(C(C)(C)C)ccc1n2-c1ccc(S(=O)(=O)c2ccc(-n3c4ccc(C(C)(C)C)cc4c4cc(C(C)(C)C)ccc43)nc2)cn1` ?
444.37

API: the following record is the query input.
Any idea what emission maximum was measured for `CCCC1=Cc2nc1ccc1[nH]c(cc1CCC)c1nc(ccc3[nH]c2cc3CCC)C(CCC)=C1` ?
641

---

Test: solvent given as SMILES
Settings: in Cc1ccccc1
# emission maximum listing for each entry below
Give your result in nm as a bare value.

// known answers, use as guide
Any idea what emission maximum was measured for Oc1ccccc1C1=NC2c3cccc4cccc(c34)C2N1c1ccccc1 (stereo not given) ?
575

Any idea what emission maximum was measured for `CCn1c2ccccc2c2cc(/C=C/c3cc(/C=C/c4ccc5c(c4)c4ccccc4n5CC)[n+](CCCS(=O)(=O)[O-])c(/C=C/c4ccc5c(c4)c4ccccc4n5CC)c3)ccc21` ?
599

Any idea what emission maximum was measured for `c1ccc(-c2nc(-c3ccccc3)nc(-c3ccc(-n4c5ccccc5c5cc6c(cc54)C4(c5ccccc5-c5ccccc54)c4ccccc4-6)cc3)n2)cc1` ?
432

Others:
Any idea what emission maximum was measured for `Cc1ccc(C2=C3C=CC(c4ccccc4)=[N+]3[B-](F)(F)n3c2ccc3-c2ccccc2)cc1` ?
589

Any idea what emission maximum was measured for `CC1(C)c2ccccc2N(c2ccc(-c3ccc(C#N)c(C#N)n3)cc2)c2ccccc21` ?
562

Any idea what emission maximum was measured for `CC1(C)c2ccccc2N(c2ccc(B3c4ccccc4Oc4ccccc43)cc2)c2ccccc21` ?
472

Any idea what emission maximum was measured for `c1ccc2cc(-n3c4ccccc4c4ccccc43)ccc2c1` ?
364

Any idea what emission maximum was measured for `Cc1ccc2c(c1)C1(c3ccccc3Oc3ccccc31)c1cc(C)ccc1N2c1ccc(-c2nc(-c3ccccc3)cc(-c3ccccc3)n2)cc1` ?
451

Any idea what emission maximum was measured for `Oc1ccc2ccccc2c1C1Nc2cccc3cccc(c23)N1` ?
468
